target_system: recombinant human EG5 motor domain (Homo sapiens)
Construct: recombinant human EG5 motor domain
Sequence (P52732 18-359 limits assumed): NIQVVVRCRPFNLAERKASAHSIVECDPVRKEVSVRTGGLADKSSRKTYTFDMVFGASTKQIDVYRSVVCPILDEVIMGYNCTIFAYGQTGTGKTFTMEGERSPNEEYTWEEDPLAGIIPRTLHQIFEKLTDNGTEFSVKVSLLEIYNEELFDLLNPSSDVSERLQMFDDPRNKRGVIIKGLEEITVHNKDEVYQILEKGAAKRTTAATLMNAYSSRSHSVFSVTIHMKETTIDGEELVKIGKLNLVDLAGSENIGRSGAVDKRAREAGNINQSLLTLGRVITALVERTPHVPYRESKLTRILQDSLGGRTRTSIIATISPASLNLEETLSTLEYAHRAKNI
measurement_notes: microtubule-activated Eg5 ATPase assay (Cytoskeleton, Inc)
condition_details: microtubule-activated ATPase activity of recombinant human EG5 motor domain
pIC50: −log10 of the molar value.
value_type: pIC50

record_smiles: COC(=O)[C@@H](N)CSC(c1ccccc1)(c1ccccc1)c1ccccc1
target_system: recombinant human EG5 motor domain (Homo sapiens)
value_type: pIC50
bound_sign: =
value_measured: 6.29
//
record_smiles: COc1ccc(C(SC[C@H](N)C(=O)NCCOCCN)(c2ccccc2)c2ccccc2)cc1
target_system: recombinant human EG5 motor domain (Homo sapiens)
value_type: pIC50
bound_sign: =
value_measured: 6.55
//
record_smiles: N[C@@H](CSC(c1ccccc1)c1ccccc1)C(=O)O
target_system: recombinant human EG5 motor domain (Homo sapiens)
value_type: pIC50
bound_sign: <
value_measured: 4.00
//
record_smiles: N[C@@H](CSC1c2ccccc2-c2ccccc21)C(=O)O
target_system: recombinant human EG5 motor domain (Homo sapiens)
value_type: pIC50
bound_sign: <
value_measured: 4.00
//
record_smiles: N[C@@H](CSC(c1ccccc1)(c1ccccc1)c1cccnc1)C(=O)O
target_system: recombinant human EG5 motor domain (Homo sapiens)
value_type: pIC50
bound_sign: <
value_measured: 4.00
//
record_smiles: C#CCNC(=O)[C@@H](N)CSC(c1ccccc1)(c1ccccc1)c1ccccc1
target_system: recombinant human EG5 motor domain (Homo sapiens)
value_type: pIC50
bound_sign: =
value_measured: 6.31
//
record_smiles: N[C@@H](CSCC1c2ccccc2-c2ccccc21)C(=O)O
target_system: recombinant human EG5 motor domain (Homo sapiens)
value_type: pIC50
bound_sign: <
value_measured: 4.00
//
record_smiles: CC(=O)N[C@@H](CSC(c1ccccc1)(c1ccccc1)c1ccccc1)C(N)=O
target_system: recombinant human EG5 motor domain (Homo sapiens)
value_type: pIC50
bound_sign: <
value_measured: 4.00
//
record_smiles: CCCCNC(=O)[C@@H](N)CSC(c1ccccc1)(c1ccccc1)c1ccccc1
target_system: recombinant human EG5 motor domain (Homo sapiens)
value_type: pIC50
bound_sign: =
value_measured: 6.25

* * *

target_system: recombinant human EG5 motor domain (Homo sapiens, UniProt P52732)
Construct: recombinant human EG5 motor domain
measurement_notes: microtubule-activated Eg5 ATPase assay (Cytoskeleton, Inc)
condition_details: microtubule-activated ATPase activity of recombinant human EG5 motor domain

compound: NC(=O)[C@@H](N)CSC(c1ccccc1)(c1ccccc1)c1ccccc1 [Compound 3.3, (R)-2-amino-3-(tritylthio)propanamide]
bound_sign: =
IC50 / nM: 540

compound: N[C@@H](COC(c1ccccc1)(c1ccccc1)c1ccccc1)C(=O)O [Compound 2.8, (S)-2-amino-3-(trityloxy)propanoic acid]
bound_sign: =
IC50 / nM: 760

compound: C#CCNC(=O)[C@@H](N)CSC(c1ccccc1)(c1ccccc1)c1ccc(OC)cc1
bound_sign: =
IC50 / nM: 310

compound: CC(=O)N[C@@H](CSC(c1ccccc1)(c1ccccc1)c1ccccc1)C(=O)O
bound_sign: >
IC50 / nM: 100000
